Measured values drawn from PubChem BioAssay (NCI) for this set.

test system: SF-295 CNS; test: NCI tumour cell line growth inhibition, 48 h
Readout name: TGI

Challenge: Param item = CCCCOc1ccc(/C=N/Nc2cc(C)nc3ccc(Cl)cc23)cc1 ; retrieve measured TGI.
Response given: 3.1 µM

Challenge: Param item = O=C(/C(=C/c1ccccc1)c1ccccc1)N1c2ccccc2CC1c1c[nH]c2ccccc12 (stereo not given) ; retrieve measured TGI.
Response given: > 100 µM

Challenge: Param item = OCC(O)C(O)C(O)C(O)/C=N/Nc1nc(O)c(/C=C2\C=Nc3ccccc32)[nH]1 (stereo not given) ; retrieve measured TGI.
Response given: > 100 µM

Challenge: Param item = O=C(Oc1cccc(Cl)c1)c1cc2cc(CCl)ccc2oc1=O ; retrieve measured TGI.
Response given: > 100 µM

Challenge: Param item = COC(=O)[C@]12CC[C@@H](C)[C@H](C)[C@@H]1C1=CC[C@@H]3[C@@]4(C)CC(=O)[C@H](OC(=O)c5ccco5)[C@@]5(C)COC(=C45)C[C@@]3(C)[C@]1(C)CC2 ; retrieve measured TGI.
Response given: > 100 µM

Challenge: Param item = COc1ccc2c(c1)OCCC1=C2SCC2(C)CCN=C12 (stereo not given) ; retrieve measured TGI.
Response given: > 100 µM

Challenge: Param item = Cc1ccc2c(=O)c(-c3n[nH]c(=S)s3)c[nH]c2n1 ; retrieve measured TGI.
Response given: > 100 µM

Challenge: Param item = COC(=O)C1CC(C(=O)OC)c2nc3cc(C)c(C)cc3nc21 (stereo not given) ; retrieve measured TGI.
Response given: > 100 µM

Challenge: Param item = O=S(=O)(/N=C(\NO)Nc1ccc(Cl)cc1)c1ccc(-c2ccccn2)s1 ; retrieve measured TGI.
Response given: > 100 µM

Challenge: Param item = Cc1cc(O)cc2c1c(=O)c1ccccc1n2C ; retrieve measured TGI.
Response given: > 100 µM

Challenge: Param item = COc1cc([C@@H]2c3cc4c(cc3C(OC3O[C@@H]5COC(C)O[C@H]5[C@H](O)[C@H]3O)C3COC(=O)[C@@H]32)OCO4)cc(OC)c1O (stereo not given in full) ; retrieve measured TGI.
Response given: 9.83 µM

Challenge: Param item = COc1c(N2CCN(Cn3c(O)c(N=NC(=O)c4ccncc4)c4cc(F)ccc43)C(C)C2)c(F)cc2c(=O)c(C(=O)O)cn(C3CC3)c12 (stereo not given) ; retrieve measured TGI.
Response given: > 50 µM

Challenge: Param item = O=C(O)CC(O)(C(=O)O)C(O)C(=O)O (stereo not given) ; retrieve measured TGI.
Response given: > 1000 µM

Challenge: Param item = O=C(Nc1cccc(C(F)(F)F)c1)c1cc(Br)cc(Br)c1O ; retrieve measured TGI.
Response given: 7.19 µM

Challenge: Param item = O=C1c2ccccc2-c2c1c1ccccc1c(=O)n2-c1ccccc1 ; retrieve measured TGI.
Response given: 23.6 µM

Challenge: Param item = COP(C)(=O)C(Cc1c[nH]c2ccccc12)NC(=O)OCc1ccccc1 (stereo not given) ; retrieve measured TGI.
Response given: > 100 µM

Challenge: Param item = C#CCN(Cc1nc2cc(C(F)(F)F)ccc2nc1-c1ccccc1)c1ccc(F)c(F)c1 ; retrieve measured TGI.
Response given: > 100 µM

Challenge: Param item = CCN1CCNc2c3cc(OC)ccc3nc3c([N+](=O)[O-])ccc1c23 ; retrieve measured TGI.
Response given: 5.55 µM

Challenge: Param item = COc1ccc(N2C(=O)C3CC4=CC(=O)C[C@H]4[C@H]32)cc1 (stereo not given in full) ; retrieve measured TGI.
Response given: > 100 µM

Challenge: Param item = COCCNC1CCC2(SCCS2)c2[nH]c3ccccc3c21 (stereo not given) ; retrieve measured TGI.
Response given: > 100 µM
